Please provide measured pIC50 for the entries that follow.
Test: Inhibition of soybean lipoxygenase
Set-up: species or system Glycine max
One number for each entry, as −log10 of the molar value.

Cc1ccc(CNNC(=O)c2cc3ccccc3n2C)cc1 :: 4.11
CC(C)=NNC(=O)c1cc2ccccc2n1C :: 4.20

Kindly consider the entry below.
INPUT: Which pIC50 value belongs to CCCCNNC(=O)c1cc2ccccc2[nH]1 ?
OUTPUT: 4.20

====

Test: Antioxidant activity assessed as Fe3+/ascorbic acid-induced hydroxyl radical scavenging activity at 100 uM after 30 mins
Assay type: functional
Activity calls are given as the source filed them. The calls are words filed in the database; no cut-off is given here.
recorded_endpoint: Activity

// worked examples, Activity included
CCC(CC)NNC(=O)c1cc2ccccc2[nH]1 :: 61%
NNC(=O)CCc1c[nH]c2ccccc12 :: inactive
NNCCCc1c[nH]c2ccccc12 :: 34%
CCCCNNC(=O)c1cc2ccccc2[nH]1 :: 90%
CC(C)=NNC(=O)c1cc2ccccc2n1C :: 18%

For every item below, please supply its Activity.
1. C/C(Cc1ccccc1)=N/NC(=O)c1c[nH]c2ccc(O)cc12
2. Cc1c(C)c2c(c(C)c1O)CCC(C)(C(=O)O)O2 (stereo unspecified)
3. O=C(NN=C1CCCC1)c1cc2ccccc2[nH]1
4. C/C(CC(C)C)=N\NC(=O)c1cc2ccccc2[nH]1
5. Cc1ccc(CNNC(=O)c2cc3ccccc3n2C)cc1
6. O=C(NNCCCc1ccccc1)c1cc2ccccc2[nH]1

OUTPUT:
["2%", "73%", "17%", "74%", "inactive", "inactive"]

====

System: Glycine max
Assay: Inhibition of soybean lipoxygenase at 100 uM
The source made the active and inactive calls. No cut-off for these calls is given here.
recorded_endpoint: inhibition

Please review the entries below; each comes with its answer.
C/C(Cc1ccccc1)=N/NC(=O)c1c[nH]c2ccc(O)cc12 :: 52%
CCC(CC)NNC(=O)c1cc2ccccc2[nH]1 :: 19%
O=C(NNCCCc1ccccc1)c1cc2ccccc2[nH]1 :: 33%
NNCCCc1c[nH]c2ccccc12 :: inactive

Go through the items and report each one's inhibition.
1. C/C(CC(C)C)=N\NC(=O)c1cc2ccccc2[nH]1
2. O=C(NN=C1CCCC1)c1cc2ccccc2[nH]1
3. NNC(=O)CCc1c[nH]c2ccccc12

OUTPUT:
1: 31%; 2: 37%; 3: inactive

====

Test: Antioxidant activity against AAPH-induced lipid peroxidation at 100 uM by UV spectrophotometry
Format: functional
recorded_endpoint: Activity

CCC(CC)NNC(=O)c1cc2ccccc2[nH]1 :: 30%
NNCCCc1c[nH]c2ccccc12 :: 25%
Cc1ccc(CNNC(=O)c2cc3ccccc3n2C)cc1 :: 85%
O=C(NN=C1CCCC1)c1cc2ccccc2[nH]1 :: 65%
C/C(CC(C)C)=N\NC(=O)c1cc2ccccc2[nH]1 :: 68%
CC(C)=NNC(=O)c1cc2ccccc2n1C :: 87%
C/C(Cc1ccccc1)=N/NC(=O)c1c[nH]c2ccc(O)cc12 :: 50%
Cc1c(C)c2c(c(C)c1O)CCC(C)(C(=O)O)O2 (stereo unspecified) :: 63%

Dear reader, for each entry below, please note its Activity.
1. O=C(NNCCCc1ccccc1)c1cc2ccccc2[nH]1
2. CCCCNNC(=O)c1cc2ccccc2[nH]1

OUTPUT:
1: 64%; 2: 78%

====

Experiment: Antioxidant activity assessed as xanthine-xanthine oxidase-induced superoxide anion radical scavenging activity at 0.1 mM after 10 mins by spectrophotometry
Format: functional
Activity calls are given as the source filed them. The rule behind the calls is not given here.
recorded_endpoint: Activity

Some solved cases for reference:
O=C(NN=C1CCCC1)c1cc2ccccc2[nH]1 :: inactive
NNCCCc1c[nH]c2ccccc12 :: inactive
C/C(CC(C)C)=N\NC(=O)c1cc2ccccc2[nH]1 :: inactive
CCCCNNC(=O)c1cc2ccccc2[nH]1 :: 33%

Please supply Activity for each of the following items, keeping them in order.
1. NNC(=O)CCc1c[nH]c2ccccc12
2. Cc1ccc(CNNC(=O)c2cc3ccccc3n2C)cc1
3. CCC(CC)NNC(=O)c1cc2ccccc2[nH]1

OUTPUT:
["67%", "67%", "inactive"]

For the 3 compounds below, give their Activity values.
1. CC(C)=NNC(=O)c1cc2ccccc2n1C
2. O=C(O)/C=C/c1ccc(O)c(O)c1
3. C/C(Cc1ccccc1)=N/NC(=O)c1c[nH]c2ccc(O)cc12

OUTPUT:
["100%", "15%", "inactive"]

INPUT: Which value of Activity has been reported for O=C(NNCCCc1ccccc1)c1cc2ccccc2[nH]1 in the records?
OUTPUT: inactive

The values you see were collected from ChEMBL document CHEMBL2375310.
